# credit: the supplement of paper PMC10724198

Tested on: Saccharomyces cerevisiae
Test: protein stability index of tFT-peptide fusion (C-terminal peptide) (PSI (0-1 scale)); higher = more stable (slower turnover)
Settings: genetic background: wild type; temperature: 30 C
param class (str): category from protein stability index; see ranges L (below 0.6), M (0.6 to below 0.7), H (0.7 or more)

Observe how each entry below is paired with its result.
- primary sequence: "APPPPRPLLPSL"
  classification: "H"
- primary sequence: "VQSVDVLLISSL"
  classification: "M"
- primary sequence: "RCLHTSVFLIFP"
  classification: "L"
- primary sequence: "PRVPSSPNPPPI"
  classification: "H"
- primary sequence: "GGAVGYRLVACD"
  classification: "M"

Record `VDCGPLSIEGGR` — which class? M

`PSFSPLPLPSIV` , same question. H

`WSGGAGGGGRLG` , same question. M

`FFPSFGLFLCPV` , same question. L

`VWVWHGAVLMGG` , same question. L

`LVSSYVPFFFAL` , same question. L

`SVPTPPLVPSIS` , same question. M

`LPPPPRPLPRSL` , same question. H

`LISLSHLSANQM` , same question. M

`GIVDCTKVIGLP` , same question. H

`APGPCSAPSCGA` , same question. M

`VLLLSRPLFPFS` , same question. M

`GGREVGQVLWDD` , same question. M

`DSRTLDQNRAKF` , same question. H

`SPLETLLCTPSI` , same question. M

`LVSCGNFLVFCF` , same question. L

`VFLASFLVCPIS` , same question. M

`GVRLSPTACSSI` , same question. M

`SPLPPPPHPSPF` , same question. L

`AGCGGIWGLWVL` , same question. H

`GFGLACGRCMGS` , same question. M

`RIGEHGWLTGYI` , same question. H

`GADSWFGVVDVC` , same question. H

`CSSGGFSLFDEA` , same question. H

`YCILGSYRLCVG` , same question. L

`VCSCLVLVFCCC` , same question. L

* * *

Tested on: Saccharomyces cerevisiae
Test: protein stability index of tFT-peptide fusion (C-terminal peptide) (PSI (0-1 scale)); higher = more stable (slower turnover)
Details: genetic background: das1 deletion; temperature: 30 C
Give protein stability index for every item shown.
One number for each entry.

Some entries whose results are on file:
- primary sequence: "LCLLESLDCLAK [PMT7 C-terminal 12 aa]"
  reading: 0.669
- primary sequence: "PRERLLSEYCSS [MET8 C-terminal 12 aa]"
  reading: 0.719
- primary sequence: "TAYFICGMVIQL [YDL041W C-terminal 12 aa]"
  reading: 0.349
- primary sequence: "QKAQDVDVSMQD [RPN13 C-terminal 12 aa]"
  reading: 0.68
- primary sequence: "PPPQESTEKEEK [MRP13 C-terminal 12 aa]"
  reading: 0.709

What does the data say about its protein stability index? Entry: MVGVLFFWVWIT [BET1 C-terminal 12 aa] 0.201

* * *

Tested on: Saccharomyces cerevisiae
Assay: protein stability index of tFT-peptide fusion (C-terminal peptide) (PSI (0-1 scale)); higher = more stable (slower turnover)
Details: genetic background: wild type; temperature: 30 C
Note to self: values exactly at 0.7 are 1 (yes). So protein stability index at or above 0.7 is 1 (yes), below is 0 (no).

Observe how each entry below is paired with its result.
- primary sequence: "FHHTSKTFAFAD [YGR219W C-terminal 12 aa]"
  classification: "0 (no)"
- primary sequence: "QYDYELIQVQCS [PPN2 C-terminal 12 aa]"
  classification: "0 (no)"
- primary sequence: "STTMNFNYQTKV [SDD1 C-terminal 12 aa]"
  classification: "0 (no)"

Is reported protein stability index greater than or equal to 0.7 here: LLSVDGWRTDQL [QRI7 C-terminal 12 aa] 1 (yes)
